Assay: Cytotoxicity against human U2OS cells assessed as decrease in viable cells after 72 hrs by cell number count in anti-T. cruzi high content imaging assay
Details: U2OS cells
measurement-kind: CC50 at 72 h

{"compound": "NC(=S)N/N=C/c1ccc(-c2ccccc2)cc1", "reported-measurement": "> 44 µM"}
{"compound": "CCCCCCCCCCCCCCCCOP(=O)([O-])OCC[N+](C)(C)C [MILTEFOSINE]", "reported-measurement": "11.5 µM"}
{"compound": "N/C(S)=N/N=C/c1cccc(Br)c1", "reported-measurement": "> 44 µM"}
{"compound": "NC(=S)N/N=C/c1ccc(OCc2ccc(Cl)c(Cl)c2)cc1", "reported-measurement": "72 µM"}
{"compound": "CSc1ccc(/C=N/NC(N)=S)cc1", "reported-measurement": "> 44 µM"}
{"compound": "NC(=S)N/N=C/C=C/c1ccccc1", "reported-measurement": "> 44 µM"}
{"compound": "NC(=S)N/N=C/c1ccco1", "reported-measurement": "> 44 µM"}

###

Tested on: Trypanosoma brucei
Test: Potentiation of methotrexate-induced antitrypanosomal activity against Trypanosoma brucei Lister 427 bloodstream form at 10 uM after 72 hrs by resazurin dye-based assay relative to control
Format: functional
Classify by measured Activity: condition met if it is equal to or exceeds 60%, condition not met if it is smaller.

{"smiles-notation": "COc1cc(/C=N/NC(N)=S)cc(OC)c1OC", "target-under-test": "Trypanosoma brucei", "class": "condition not met"}
{"smiles-notation": "N/C(S)=N/N=C/c1ccc([N+](=O)[O-])cc1", "target-under-test": "Trypanosoma brucei", "class": "condition not met"}
{"smiles-notation": "N/C(S)=N/N=C/c1ccc(Cl)c(Cl)c1", "target-under-test": "Trypanosoma brucei", "class": "condition met"}
{"smiles-notation": "C/C(=N\\NC(N)=S)c1ccc(O)cc1", "target-under-test": "Trypanosoma brucei", "class": "condition met"}
{"smiles-notation": "CN(C)c1ccc(/C=N/N=C(/N)S)c2ccccc12", "target-under-test": "Trypanosoma brucei", "class": "condition met"}
{"smiles-notation": "NC(=S)N/N=C/c1ccccc1O", "target-under-test": "Trypanosoma brucei", "class": "condition met"}
{"smiles-notation": "NC(=S)N/N=C/c1ccc2ncccc2c1", "target-under-test": "Trypanosoma brucei", "class": "condition met"}
{"smiles-notation": "COc1ccc(-c2cccc(/C=N/NC(N)=S)c2)cc1OC", "target-under-test": "Trypanosoma brucei", "class": "condition met"}
{"smiles-notation": "NC(=S)N/N=C/c1ccc(-c2ccccc2)cc1", "target-under-test": "Trypanosoma brucei", "class": "condition met"}
{"smiles-notation": "NC(=S)N/N=C/C=C/c1ccccc1", "target-under-test": "Trypanosoma brucei", "class": "condition met"}
{"smiles-notation": "C/C(=N\\NC(N)=S)c1ccc(N)cc1", "target-under-test": "Trypanosoma brucei", "class": "condition met"}
{"smiles-notation": "NC(=S)N/N=C/c1cccc(-c2ccc3c(c2)OCO3)c1", "target-under-test": "Trypanosoma brucei", "class": "condition met"}
{"smiles-notation": "Cc1ccsc1/C=N/NC(N)=S", "target-under-test": "Trypanosoma brucei", "class": "condition not met"}

###

Test system: Trypanosoma brucei
Test: Antitrypanosomal activity against Trypanosoma brucei Lister 427 bloodstream form at 10 uM after 72 hrs by resazurin dye-based assay relative to control
Type: functional
Consider the cut-off 8%. If the recorded Activity is strictly smaller, the label is class 1; if not, the label is class 0.

{"molecule": "NC(=S)N/N=C/c1ccc(OCc2ccc(Cl)c(Cl)c2)cc1", "class": "class 0"}
{"molecule": "NC(=S)N/N=C/c1ccc(N)cc1", "class": "class 1"}
{"molecule": "NC(=S)N/N=C/C(O)C(O)C(O)CO (configuration not stated)", "class": "class 1"}
{"molecule": "NC(=S)N/N=C/c1cccc(-c2ccccc2)c1", "class": "class 0"}
{"molecule": "NC(=S)N/N=C/c1ccc(-c2ccccc2)cc1", "class": "class 0"}
{"molecule": "Cc1ccsc1/C=N/NC(N)=S", "class": "class 0"}
